Molecular target: T1, full length human DLL4 (human, UniProt Q9NR61 27-685)
T1 construct: whole, on cells; also called native DLL4 expressed in HEK293 cells
T1 sequence (Q9NR61 27-685): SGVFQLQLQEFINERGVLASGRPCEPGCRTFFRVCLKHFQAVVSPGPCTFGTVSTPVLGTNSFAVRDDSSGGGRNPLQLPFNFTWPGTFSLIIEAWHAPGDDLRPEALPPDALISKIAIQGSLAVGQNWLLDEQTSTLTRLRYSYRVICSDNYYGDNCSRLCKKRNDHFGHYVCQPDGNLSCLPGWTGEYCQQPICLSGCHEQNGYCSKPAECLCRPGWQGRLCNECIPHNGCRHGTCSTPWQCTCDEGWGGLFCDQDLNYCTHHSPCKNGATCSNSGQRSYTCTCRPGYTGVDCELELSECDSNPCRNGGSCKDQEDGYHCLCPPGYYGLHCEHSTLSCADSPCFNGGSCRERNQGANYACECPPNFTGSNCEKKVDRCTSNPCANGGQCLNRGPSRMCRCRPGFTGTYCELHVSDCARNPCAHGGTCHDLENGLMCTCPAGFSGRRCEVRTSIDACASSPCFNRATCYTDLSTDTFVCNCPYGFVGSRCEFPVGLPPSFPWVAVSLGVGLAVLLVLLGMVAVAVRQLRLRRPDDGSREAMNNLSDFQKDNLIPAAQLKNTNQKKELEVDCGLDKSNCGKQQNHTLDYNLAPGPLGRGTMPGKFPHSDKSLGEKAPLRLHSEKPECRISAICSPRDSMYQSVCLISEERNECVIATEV
Test: FMAT competition, purified antibody vs Alexa-647 human Notch1/Fc, 293T cells with human DLL4
READOUT: pIC50
# pIC50 = -log10(concentration in molar units)

Solved entries:
20G8 (antibody, IgG4, V domains shown, Fully human; also used where no isotype is printed) VH: QVQLVQSGAEVKKPGASVKVSCKASGYTFTSYGISWVRQAPGQGLEWMGWISVYNGNTNYAQKLQGRVTMTTDTSTSTAYMEVRSLRSDDTAVYYCARDRVPRIPRTTEAFDIWGRGTMVTVCS VL: QSVLTQPPSASGTPGQRVTISCSGSSSNIGSYYVYWYQQLPGTAPKLLIYRDNQRPSGVPDRFSGSKSGTSASLAIRGLRSDDEADYYCAAWDDSLSGHWVFGGGTKLTVL :: 8.69
12A1 (antibody, IgG4, V domains shown, Fully human; also used where no isotype is printed) VH: QVQLVQSGAEVKRPGASVKVSCKASGYTFTSYGITWVRQAPGQGLEYMGWISTYNGNTDYAQKFQGRVTMTADISTSTAYMELRSLRSDDTAVYYCARERGSYFDYWGQGTLVTVSS VL: SYELTQPPSVSVSPGQTARITCSGDTLPKKYAYWYQQKSGQAPVLVIYEDIKRPSGIPERFSGSSSGTMATLTISGAQVEDEADYYCFSTDSGGNHKFGGGTKLTVL :: 8.83
21H3 (antibody, IgG4, V domains shown, Fully human; used for IgG4 rows and where no isotype is printed; also called 21H3 IgG4) VH: QVQLVQSGAEVKKPGASVKVSCKASGYTFTNYGITWVRQAPGQGPEWMGWISAYNGNTNYAQKLQDRVTVTTDTSTSTAYMELRSLRSDDTAVYYCARDRVPRIPVTTEAFDIWGQGTMVTVSS VL: QSVLTQPPSASGTPGQRVTISCSGSSSNIGSYFVYWYQQLPGTAPKLLIYRNNQRPSGVPDRFSGSESGTSASLAISGLRSEDEADYYCAAWDDSLSGHWVFGGGTRLTVL :: 8.76
1E4 (antibody, IgG2, V domains shown, Fully human; also used where no isotype is printed) VH: QVQLVESGGGVVQPGRSLRLSCAASGFTFSSYGMHWVRQAPGKGLEWVAVTWYDGSNKYYADSVKGRFTISRDNSKNTLYLQMNSLRAEDTAVYYCARENCSSTSCYYTVTTDYYGMDVWGQGTTVTVSS VL: EIVLTQSPGTLSLSPGERATLSCRASQRVSSSYLTWYQQKPGQAPRLLIYGASIRATGIPDRFSGSGSGTDFTLTITRLEPEDFAVYFCQQCYTSPITFGQGTRLDIK :: 9.00
3A7 (antibody, IgG4, V domains shown, Fully human; also used where no isotype is printed) VH: EVQVVESGGGLVQPGGSLRLSCEASGFTFSNYWMIWVRQAPGKGLEWVASIKEDGSEKYYVDSVKGRFTISRDNAKSSLYLQMNSLRAEDTAVYYCVRDWELRGHYYYHGMDVWGQGTTVTVSS VL: DIQMTQSPSSLSASVGDRVTITCRASLDIRNDLGWFLQKPGKAPKRLIYAASSLQSGVPSRFSGSGSGTEFTLTINSLQPEDFATYYCLQHRNYPFTFGPGTKVDFK :: 8.53
17F3 (antibody, IgG2, V domains shown, Fully human; also used where no isotype is printed) VH: QVQLVQSGAEVKKPGASVKVSCKASGYTFTNYGISWVRQAPGQGLEWMGWINAYNGNTNYAQNLQGRVTMTTDTSTNTAYMELRSLRSDDTAVYYCARVAPAAFFDYWDQGTLVTVSS VL: SYELTQPPSVSVSPGQTASITCSGDKLGDKYVCWYQQKPGQSPVLVIYQDNKRPSGIPERFSGSNSGNTATLIISGTQAMDEADYYCQAWDSSTVFGGGTKLTVL :: 8.74

Input line: Endpoint output: pIC50 of 4B3 (antibody, IgG4, V domains shown, Fully human; also used where no isotype is printed) VH: QVQLVQSGAEVRKSGASVKVSCKASGYSFTTYDINWVRQATGQGLEWMGWMNPNSGYTDYAQKFQGRVTLTRNMSIDTAYMELSSLRSEDTAVYYCARAYYYDSSAYYLFDYWGQGTLVTVSS VL: DIQMTQSPSSLSASVGDRVTITCRASQGISNYLAWFQQKPGKAPKSLIYAASSLQSGVPSKFSGSGSGTDFTLTISSLQPEDFATYFCQQYISYPLTFGGGTKVEI . Value?
Output line: 8.48

Input line: Endpoint output: pIC50 of 2H10 (antibody, IgG4, V domains shown, Fully human; used for IgG4 rows and where no isotype is printed; also called 2H10 IgG4) VH: QVQLVESGGGVVQPGRSLRLSCAASGFTFSRHGMHWVRQAPGKGLEWVAVVWFDGSNIYYADSVKGRFTISRDNSKNTLYLQMNSLRAEDTAMYYCARDSRIAAADYWGQGTLVTVSS VL: SYELTQPPSVSVSPGQTVSITCSGDKLGDKYVCWYQQKPGQSPVLVIYQESKRPSGIPERFSGSSSGNTATLTISGTQAMDEADYYCQTWDSSLVVFGGGTKLTVL . Value?
Output line: 8.69

Input line: Endpoint output: pIC50 of 1D4 (antibody, IgG4, V domains shown, Fully human XenoMouse antibody; also used where no isotype is printed) VH: QLQLQESGPGLVKPSETLSLTCTVSGGSISSSSYYWGWIRQPPGKGLEWIGSFYYSRSTYYNPSLKSRVTISVDTSKNQFSLKLSSVTAADTAVHYCARGSIAVPDAFDIWGQGTMVTVSS VL: SYELTQPPSVSVSPGQTASITCSGDKLGDKFACWYQQKPGHSPVLVVYQDNKRPSGIPERFSGSNSGNSATLTISGTQAMDEADYYCQAWDSNTAVFGGGTKLTVL . Value?
Output line: 8.70

Input line: Endpoint output: pIC50 of 9G8 (antibody, IgG4, V domains shown, Fully human; used for IgG4 rows and where no isotype is printed; also called 9G8 IgG4) VH: QLQLQESGPGLVKPSETLSLSCTVSGGSISSSSSYWGLIRQPPGKGLEWIGSIYYSGSTYYSPSLKSRVSISVDTSKNQFSLKLSSVTAADTAVYFCARQGYGGHPDVFDIWGQGTMVTVSS VL: SSELTQSPSVSVSPGQTARITCSGDKLGDVYVCWYQQKTGQSPVLVIYEDTKRPSGIPERFSGSNSGNTATLTISGTQVMDEADYYCQAWDSTTAVIFGGGTKLTVL . Value?
Output line: 8.73

Input line: Endpoint output: pIC50 of 4B4 (antibody, IgG4, V domains shown, Fully human; used for IgG4 rows and where no isotype is printed; also called 4B4 IgG4; 4B4.1) VH: QVLLIQSGAEVKKPGASVQVSCKASGYTFTNYGVIWVRQAPGQGLEYMGWISAYNGNTNYAQKLQDRVTMTSDTSTTTAYMELRSLRSDDTAVYYCARELGSSFDYWGQGTLVTVSS VL: SYELTQPPSVSVSPGQTARITCSGDALPKKYAYWYQQKSGQAPVLVIYEDIKRPSGIPERFSGSSSGTMATLTISGAQVEDEADYYCFSTDNSGDHSVFGGGTKLTVL . Value?
Output line: 9.14
